experiment: NOD1 signaling inhibitors, primary screen, cell-based, luminescence, uHTS (AID 1578); details: NOD1-driven NF-kB luciferase reporter cells, at 4 µM;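 further: HEK-293T reporter cells stimulated with the NOD1 agonist gamma-tri-DAP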
Out of some 290,000 compounds screened, about 3,000 (1%) were called active. No stated cut-off is given here; in the data, active means inhibition mostly above about 36% (no sharp cut-off); inactive means mostly below about 34%. The list comes from a sample in which actives are over-represented; it also holds close analogues and randomly drawn compounds.
Pick one: label 1 (active), label 0 (inactive)

Consider the worked cases shown below.
{"MOLECULE": "COc1ccc(C2CC(c3cccs3)=NN2S(C)(=O)=O)cc1OC (stereo unspecified)", "ANSWER_LABEL": "label 0"}
{"MOLECULE": "O=C(NCc1cccnc1)c1ccc(-c2ccccc2[N+](=O)[O-])o1", "ANSWER_LABEL": "label 0"}
{"MOLECULE": "COc1ccccc1/C=C(/C(=O)OCC(N)=O)c1ccccc1", "ANSWER_LABEL": "label 0"}

stdin: Given `Cc1ccc2c(c1)cc(CN(Cc1cccnc1)C(=O)c1ccccc1)c1nnnn12` , state the outcome it received in this test.
stdout: label 0

stdin: Given `O=C(Nc1ccc(Cl)cc1)Nc1nnc(-c2ccncc2)s1` , state the outcome it received in this test.
stdout: label 0

stdin: Given `O=C(CCC(=O)OCC(=O)c1ccc(-c2ccccc2)cc1)Nc1cccc(Cl)c1` , state the outcome it received in this test.
stdout: label 0

stdin: Given `Cc1ccc(Nc2nnc(-c3ccc4c(c3)OCO4)o2)c(C)c1` , state the outcome it received in this test.
stdout: label 0

stdin: Given CC1(C)C2C/C(=N\O)C(C)(/[N+]([O-])=C/c3cccc([N+](=O)[O-])c3)CC21 (stereo unspecified) , state the outcome it received in this test.
stdout: label 1

stdin: Given `O=C(O)/C=C/c1ccc(-n2ccnc2)cc1` , state the outcome it received in this test.
stdout: label 0

stdin: Given COc1ccc(C2CC(c3cccs3)=NN2S(C)(=O)=O)cc1 (stereo unspecified) , state the outcome it received in this test.
stdout: label 0

stdin: Given `CCn1ncc(NC(=O)Nc2cccc(C(F)(F)F)c2)c1C(N)=O` , state the outcome it received in this test.
stdout: label 0

stdin: Given `O=C(Nc1ccc(Cl)cc1)Nc1nnc(CSc2ccc(Cl)cc2)s1` , state the outcome it received in this test.
stdout: label 0

stdin: Given `Cc1oc(-c2ccc(Cl)cc2)nc1CN1CCC(C(=O)NCCCN2CCCC2=O)CC1` , state the outcome it received in this test.
stdout: label 0

stdin: Given `COc1ccc(NC(=O)Nc2nnc(-c3cccs3)s2)cc1` , state the outcome it received in this test.
stdout: label 0

stdin: Given `O=C(Nc1ccc(Cl)cc1)Nc1nnc(CSCc2ccccc2)s1` , state the outcome it received in this test.
stdout: label 0

stdin: Given `CCCCNC(=O)N1CCN(c2ccccc2OC)CC1` , state the outcome it received in this test.
stdout: label 0

stdin: Given `Cn1ncc(Cl)c1C(=O)N/N=C/c1cccc(OC2CSC2)c1` , state the outcome it received in this test.
stdout: label 0

stdin: Given `COc1ccc(NC(=O)Nc2nnc(-c3ccco3)s2)cc1` , state the outcome it received in this test.
stdout: label 0

stdin: Given COc1cccc(C2CC(c3cccs3)=NN2S(C)(=O)=O)c1 (stereo unspecified) , state the outcome it received in this test.
stdout: label 1

stdin: Given `CCOC(=O)C(=Cc1ccc(F)cc1)C(=O)OCC` , state the outcome it received in this test.
stdout: label 0

stdin: Given `N#Cc1ccccc1NC(=O)COC(=O)c1ccc(F)cc1F` , state the outcome it received in this test.
stdout: label 0

stdin: Given `O=C(O)CCCn1cc(NC(=O)c2c(F)cccc2F)cn1` , state the outcome it received in this test.
stdout: label 0

stdin: Given `CCOC(=O)c1c(CCl)nc2ccccc2c1-c1ccccc1` , state the outcome it received in this test.
stdout: label 0

stdin: Given `Cc1ccc(C(=O)N(Cc2cccnc2)Cc2cc3cc(C)ccc3n3nnnc23)cc1` , state the outcome it received in this test.
stdout: label 1

stdin: Given `NC(=O)C1=C[C@@H](c2csc3ccccc23)C[C@@H](OCCCCO)O1` , state the outcome it received in this test.
stdout: label 0

stdin: Given `COCCN(Cc1cc2cc(C)ccc2n2nnnc12)C(=S)Nc1ccccc1C` , state the outcome it received in this test.
stdout: label 1
